# protocol: Cytotoxicity against human SMMC-7404 cells after 72 hrs by MTT assay
# Assay type: functional, cell-based
Recorded IC50 values for a group of compounds are listed next.
Please give a number only; it is taken to be in µM.

Fill in IC50 for record CC(=O)O[C@H]1CC[C@@]2(C)[C@H](CC[C@@H]3[C@@H]2CC(=O)N[C@]2(C)[C@@H]([C@H](C)CCC(=O)N(C)C)CC[C@@H]32)C1
168

Name the recorded IC50 of the compound listed here: COC(=O)CC[C@@H](C)[C@H]1CC[C@H]2[C@@H]3CC[C@@H]4C[C@@H](OC(C)=O)CC[C@]4(C)[C@H]3C/C(=N\O)[C@]12C
15.6

Give the value of IC50 reported for the following: COC(=O)CC[C@@H](C)[C@H]1CC[C@H]2[C@@H]3CC[C@@H]4C[C@@H](OC(C)=O)CC[C@]4(C)[C@H]3CC(=O)N[C@]12C
62.3

Output measured IC50 for this item: CC(=O)O[C@H]1CC[C@@]2(C)[C@H](CC[C@@H]3[C@@H]2CC(=O)N[C@]2(C)[C@@H]([C@H](C)CCC(=O)O)CC[C@@H]32)C1
99.3
